B1: HDV Ribozyme (parent)
chain: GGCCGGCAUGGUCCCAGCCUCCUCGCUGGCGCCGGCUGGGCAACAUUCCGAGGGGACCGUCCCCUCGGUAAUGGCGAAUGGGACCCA

# Variants of: B1
# Assay notes: self-cleavage, relative activity (ratio to wild type); higher = more cleavage; co-transcriptional
Values of self-cleavage greater than or equal to 0.3 map to true (1); values below map to false (0).

[
  {
    "Mutation": "A8U U9A",
    "Assigned label": "true (1)"
  },
  {
    "Mutation": "G40C C84G",
    "Assigned label": "false (0)"
  },
  {
    "Mutation": "C13G C44A",
    "Assigned label": "false (0)"
  },
  {
    "Mutation": "C44G C84U",
    "Assigned label": "true (1)"
  },
  {
    "Mutation": "C64U U69C",
    "Assigned label": "true (1)"
  },
  {
    "Mutation": "G5C C18G",
    "Assigned label": "false (0)"
  },
  {
    "Mutation": "C62G C75A",
    "Assigned label": "false (0)"
  },
  {
    "Mutation": "G2U C48U",
    "Assigned label": "false (0)"
  },
  {
    "Mutation": "G25A G40C",
    "Assigned label": "false (0)"
  },
  {
    "Mutation": "C32U U65G",
    "Assigned label": "true (1)"
  },
  {
    "Mutation": "C22G A56U",
    "Assigned label": "false (0)"
  },
  {
    "Mutation": "A43U C49U",
    "Assigned label": "true (1)"
  },
  {
    "Mutation": "G80U C85U",
    "Assigned label": "false (0)"
  },
  {
    "Mutation": "C30A G76A",
    "Assigned label": "true (1)"
  },
  {
    "Mutation": "U65C G67A",
    "Assigned label": "true (1)"
  },
  {
    "Mutation": "A42U A71G",
    "Assigned label": "true (1)"
  },
  {
    "Mutation": "G53U C66U",
    "Assigned label": "true (1)"
  },
  {
    "Mutation": "C32A G81A",
    "Assigned label": "false (0)"
  },
  {
    "Mutation": "A8G A70G",
    "Assigned label": "true (1)"
  },
  {
    "Mutation": "C36U G54U",
    "Assigned label": "true (1)"
  },
  {
    "Mutation": "C3A C49U",
    "Assigned label": "true (1)"
  },
  {
    "Mutation": "A8G C57U",
    "Assigned label": "true (1)"
  },
  {
    "Mutation": "G35A U37C",
    "Assigned label": "true (1)"
  },
  {
    "Mutation": "U27C G53U",
    "Assigned label": "true (1)"
  },
  {
    "Mutation": "G2U A56U",
    "Assigned label": "false (0)"
  }
]

Reference for the values: the RNAGym collection of RNA variant scans (doi:10.7554/elife.80360)
